Measured values drawn from paper PMC12401179 for this set.

# EXPERIMENTAL_SYSTEM: UniProtKB Q7KVH5
# Sequence (Q7KVH5 1-1028): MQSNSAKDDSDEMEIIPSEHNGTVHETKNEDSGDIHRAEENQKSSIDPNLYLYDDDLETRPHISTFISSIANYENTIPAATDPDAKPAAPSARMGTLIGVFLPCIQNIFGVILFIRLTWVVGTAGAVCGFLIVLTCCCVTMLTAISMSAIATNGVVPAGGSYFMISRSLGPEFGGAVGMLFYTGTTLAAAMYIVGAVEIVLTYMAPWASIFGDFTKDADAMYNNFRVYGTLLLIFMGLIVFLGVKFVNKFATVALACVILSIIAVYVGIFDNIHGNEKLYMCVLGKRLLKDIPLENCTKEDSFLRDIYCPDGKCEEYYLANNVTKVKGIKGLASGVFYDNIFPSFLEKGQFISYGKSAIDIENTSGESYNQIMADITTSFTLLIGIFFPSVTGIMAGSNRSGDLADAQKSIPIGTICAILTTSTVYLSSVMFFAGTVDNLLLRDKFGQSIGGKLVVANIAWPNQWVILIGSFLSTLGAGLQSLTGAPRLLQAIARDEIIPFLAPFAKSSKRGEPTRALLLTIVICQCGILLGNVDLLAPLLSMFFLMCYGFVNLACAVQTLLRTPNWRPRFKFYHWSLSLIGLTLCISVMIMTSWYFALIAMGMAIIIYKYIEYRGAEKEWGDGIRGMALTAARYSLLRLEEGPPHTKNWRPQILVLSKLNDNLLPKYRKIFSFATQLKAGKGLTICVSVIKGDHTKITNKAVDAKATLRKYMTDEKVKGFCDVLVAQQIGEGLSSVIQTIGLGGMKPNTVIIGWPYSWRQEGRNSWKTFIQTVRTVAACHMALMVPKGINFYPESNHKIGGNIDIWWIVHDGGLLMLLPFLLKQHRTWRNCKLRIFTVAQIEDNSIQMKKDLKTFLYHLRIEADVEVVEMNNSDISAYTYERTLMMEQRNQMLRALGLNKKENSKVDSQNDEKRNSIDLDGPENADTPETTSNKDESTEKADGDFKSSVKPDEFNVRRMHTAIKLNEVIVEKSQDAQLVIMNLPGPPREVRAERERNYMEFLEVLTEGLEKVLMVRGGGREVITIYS
ASSAY_READOUT: pIC50
Note: pIC50 values are expressed as the negative base-10 logarithm of concentration in M.

Challenge: Answer with pIC50 of O=S(=O)(O)c1cc(N=C=S)ccc1C=Cc1ccc(N=C=S)cc1S(=O)(=O)O measured for UniProtKB Q7KVH5.
Response given: 7.60
